# Test system: Plasmodium falciparum
# EXPERIMENTAL PROTOCOL: Antimalarial activity against chloroquine-sensitive Plasmodium falciparum 3D7 infected in erythrocytes after 48 hrs by SYBR green 1-based fluorescence assay
# Assay type: functional, organism-based
# RECORDED CONDITIONS: 3D7, 48 h
Kindly supply the reported pIC50 values for the records listed here.
Answers are plain numbers, as −log10 of the molar value.

Worked cases, pIC50 given:
CO[C@H]1C=C2[C@@H](CC[C@H](O)C2(C)C)[C@]2(C)CC[C@]3(C)[C@@H]([C@H](C)CC(C=C(C)C)O[C@@H]4O[C@H](CO)[C@@H](O)[C@H](O)[C@H]4O)CC[C@@]3(C)[C@H]12 (some centres undefined) [KUGUAGLYCOSIDE A] ... 5.41
CC(=O)O[C@H]1C=C2[C@@H](CC[C@H](OC(C)=O)C2(C)C)[C@]2(C)CC[C@]3(C)[C@@H]([C@H](C)C[C@H](C=C(C)C)OC(C)=O)CC[C@@]3(C)[C@H]12 ... 6.10

For each entry beneath this line, provide reported pIC50.
1. CC(C)=C[C@H](O)C[C@@H](C)[C@H]1CC[C@@]2(C)[C@@H]3[C@@H](O)C=C4[C@@H](CC[C@H](O)C4(C)C)[C@]3(C)CC[C@]12C (relative stereo)
2. CC(C)=C[C@H](O)C[C@@H](C)[C@H]1CC[C@@]2(C)[C@@H]3[C@@H](O[C@@H]4O[C@H](CO)[C@@H](O)[C@H](O)[C@H]4O)C=C4[C@@H](CC[C@H](O)C4(C)C)[C@]3(C)CC[C@]12C [BALSAMINOSIDE C]

Result block:
4.74
5.47

###

Kindly state IC50 for each of the entries shown.
# Tested on: MCF7
# EXPERIMENTAL PROTOCOL: Cytotoxicity against human MCF7 cells after 24 hrs by MTT assay
# Type: cell-based
# RECORDED CONDITIONS: MCF7, 24 h
One number for each entry, in µM.

For orientation, consider the following solved cases.
CC(C)=C[C@H](O)C[C@@H](C)[C@H]1CC[C@@]2(C)[C@@H]3[C@@H](O[C@@H]4O[C@H](CO)[C@@H](O)[C@@H](O)[C@H]4O)C=C4[C@@H](CC[C@H](O)C4(C)C)[C@]3(C)CC[C@]12C (relative stereo) [BALSAMINOSIDE B] ... 14.2
CO[C@H]1C=C2[C@@H](CC[C@H](O)C2(C)C)[C@]2(C)CC[C@]3(C)[C@@H]([C@H](C)CC(C=C(C)C)O[C@@H]4O[C@H](CO)[C@@H](O)[C@H](O)[C@H]4O)CC[C@@]3(C)[C@H]12 (stereo partly specified) [KUGUAGLYCOSIDE A] ... 13.5
CC(C)=C[C@H](O)C[C@@H](C)[C@H]1CC[C@@]2(C)[C@@H]3[C@@H](O)C=C4[C@@H](CC[C@H](O)C4(C)C)[C@]3(C)CC[C@]12C (relative stereo) [BALSAMINOL F] ... 27.3

Lab note: next compound to report on.
Form field IC50, entry CC(C)=C[C@H](O)C[C@@H](C)[C@H]1CC[C@@]2(C)[C@@H]3[C@@H](O[C@@H]4O[C@H](CO)[C@@H](O)[C@H](O)[C@H]4O)C=C4[C@@H](CC[C@H](O)C4(C)C)[C@]3(C)CC[C@]12C [BALSAMINOSIDE C] : 23.9

All values here come from ChEMBL document CHEMBL1926567.
